Target: T1, corticotropin-releasing hormone (CRH) peptide (human and mouse (same sequence), not fully specified)
T1 peptide: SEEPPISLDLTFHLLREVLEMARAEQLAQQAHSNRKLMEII
Experiment: cell-based or functional assay
Measured hCRHR1 Luciferase Reporter Assay IC50 values are reported for all entries that follow.

[
  {
    "binder": "PR302341-44 (antibody, human IgG1, kappa, V domains shown) VH: QVQLVQSGAEVKKPGASVKVSCKASGYTFTDYFMKWVRQAPGQGLEWMGVINPNSGDIFYNQKFKGRVTMTVDKSTSTAYMELSSLRSEDTAVYYCARGTDRALFAYWGQGTLVTVSS VL: DVVMTQTPLSSPVTLGQPASISCRSGQSIVHSDGNTYLEWYQQRPGQPPRLLIYKVSNRFSGVPDRFSGSGAGTDFTLKISRVEAEDLGVYYCFQGSHIPWTFGGGTKVEIKR",
    "hCRHR1 Luciferase Reporter Assay IC50 [nM]": 0.646
  },
  {
    "binder": "PR302341-61 (antibody, human IgG1, kappa, V domains shown) VH: QVQLVQSGAEVKKPGASVKVSCKASGYTFTDYFMKWVRQAPGQRLEWMGVINPNNADIFYNQKFKGRVTITRDTSASTAYMELSSLRSEDTAVYYCARGTDRALFAYWGQGTLVTVSS VL: DVVMTQSPLSLPVTLGQPASISCRSGQSIVHSEGNTYLEWYQQRPGQSPRLLIYKVSNRFSGVPDRFSGSGSGTDFTLKISRVEAEDLGVYYCFQGSHIPWTFGGGTKVEIKR",
    "hCRHR1 Luciferase Reporter Assay IC50 [nM]": 1.88
  },
  {
    "binder": "PR302341-50 (antibody, human IgG1, kappa, V domains shown) VH: QVQLVQSGAEVKKPGASVKVSCKASGYTFTDYFMKWVRQAPGQGLEWMGVINPNSGDIFYNQKFKGRVTMTVDKSTSTAYMELSSLRSEDTAVYYCARGTDRALFAYWGQGTLVTVSS VL: DVVMTQTPLSSPVTLGQPASISCRSGQSIVHSEGNTYLEWYQQRPGQPPRLLIYKVSNRFSGVPDRFSGSGAGTDFTLKISRVEAEDLGVYYCFQGSHIPWTFGGGTKVEIKR",
    "hCRHR1 Luciferase Reporter Assay IC50 [nM]": 1.48
  },
  {
    "binder": "PR302341-10 (antibody, human IgG1, kappa, V domains shown) VH: QVQLVQSGAEVKKPGASVKVSCKASGYTFTDYFMKWVRQAPGQGLEWMGVINPNNGDIFYNQKFKGRVTMTVDKSTSTAYMELSSLRSEDTAVYYCARGTDRALFAYWGQGTLVTVSS VL: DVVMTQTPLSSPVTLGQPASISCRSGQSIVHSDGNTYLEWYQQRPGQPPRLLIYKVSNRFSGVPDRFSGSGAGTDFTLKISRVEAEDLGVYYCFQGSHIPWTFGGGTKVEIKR",
    "hCRHR1 Luciferase Reporter Assay IC50 [nM]": 0.342
  },
  {
    "binder": "PR302341-38 (antibody, human IgG1, kappa, V domains shown) VH: QVQLVQSGAEVKKPGASVKVSCKASGYTFTDYFMKWVRQAPGQGLEWMGVINPNQGDIFYNQKFKGRVTMTVDKSISTAYMELSRLRSDDTAVYYCARGTDRALFAYWGQGTLVTVSS VL: DVVMTQSPLSLPVTLGQPASISCRSGQSIVHSSGNTYLEWYQQRPGQSPRLLIYKVSNRFSGVPDRFSGSGSGTDFTLKISRVEAEDLGVYYCFQGSHIPWTFGGGTKVEIKR",
    "hCRHR1 Luciferase Reporter Assay IC50 [nM]": 1.78
  },
  {
    "binder": "PR302341-20 (antibody, human IgG1, kappa, V domains shown) VH: QVQLVQSGAEVKKPGASVKVSCKASGYTFTDYFMKWVRQAPGQRLEWMGVINPNNGDIFYNQKFKGRVTITRDTSASTAYMELSSLRSEDTAVYYCARGTDRALFAYWGQGTLVTVSS VL: DVVMTQSPLSLPVTLGQPASISCRSGQSIVHSDGNTYLEWYQQRPGQSPRLLIYKVSNRFSGVPDRFSGSGSGTDFTLKISRVEAEDLGVYYCFQGSHIPWTFGGGTKVEIKR",
    "hCRHR1 Luciferase Reporter Assay IC50 [nM]": 0.188
  },
  {
    "binder": "PR302341-30 (antibody, human IgG1, kappa, V domains shown) VH: QVQLVQSGAEVKKPGASVKVSCKASGYTFTDYFMKWVRQAPGQGLEWMGVINPNNGDIFYNQKFKGRVTMTVDKSISTAYMELSRLRSDDTAVYYCARGTDRALFAYWGQGTLVTVSS VL: DVVMTQSPLSLPVTLGQPASISCRSGQSIVHSEGNTYLEWYQQRPGQSPRLLIYKVSNRFSGVPDRFSGSGSGTDFTLKISRVEAEDLGVYYCFQGSHIPWTFGGGTKVEIKR",
    "hCRHR1 Luciferase Reporter Assay IC50 [nM]": 0.457
  },
  {
    "binder": "PR302341-43 (antibody, human IgG1, kappa, V domains shown) VH: QVQLVQSGAEVKKPGASVKVSCKASGYTFTDYFMKWVRQAPGQGLEWMGVINPNNADIFYNQKFKGRVTMTVDKSTSTAYMELSSLRSEDTAVYYCARGTDRALFAYWGQGTLVTVSS VL: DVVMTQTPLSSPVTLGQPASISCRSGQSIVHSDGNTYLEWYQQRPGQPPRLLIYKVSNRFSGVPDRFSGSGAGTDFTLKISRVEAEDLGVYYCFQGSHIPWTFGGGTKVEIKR",
    "hCRHR1 Luciferase Reporter Assay IC50 [nM]": 0.512
  },
  {
    "binder": "PR302341-54 (antibody, human IgG1, kappa, V domains shown) VH: QVQLVQSGAEVKKPGASVKVSCKASGYTFTDYFMKWVRQAPGQGLEWMGVINPNQGDIFYNQKFKGRVTMTVDKSTSTAYMELSSLRSEDTAVYYCARGTDRALFAYWGQGTLVTVSS VL: DVVMTQTPLSSPVTLGQPASISCRSGQSIVHSSGNTYLEWYQQRPGQPPRLLIYKVSNRFSGVPDRFSGSGAGTDFTLKISRVEAEDLGVYYCFQGSHIPWTFGGGTKVEIKR",
    "hCRHR1 Luciferase Reporter Assay IC50 [nM]": 0.732
  },
  {
    "binder": "PR302341-41 (antibody, human IgG1, kappa, V domains shown) VH: QVQLVQSGAEVKKPGASVKVSCKASGYTFTDYFMKWVRQAPGQGLEWMGVINPNSGDIFYNQKFKGRVTMTVDKSISTAYMELSRLRSDDTAVYYCARGTDRALFAYWGQGTLVTVSS VL: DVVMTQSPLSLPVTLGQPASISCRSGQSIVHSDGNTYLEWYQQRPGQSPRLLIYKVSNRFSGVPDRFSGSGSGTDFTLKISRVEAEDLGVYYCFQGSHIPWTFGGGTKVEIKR",
    "hCRHR1 Luciferase Reporter Assay IC50 [nM]": 0.471
  },
  {
    "binder": "PR302341-49 (antibody, human IgG1, kappa, V domains shown) VH: QVQLVQSGAEVKKPGASVKVSCKASGYTFTDYFMKWVRQAPGQGLEWMGVINPNNADIFYNQKFKGRVTMTVDKSTSTAYMELSSLRSEDTAVYYCARGTDRALFAYWGQGTLVTVSS VL: DVVMTQTPLSSPVTLGQPASISCRSGQSIVHSEGNTYLEWYQQRPGQPPRLLIYKVSNRFSGVPDRFSGSGAGTDFTLKISRVEAEDLGVYYCFQGSHIPWTFGGGTKVEIKR",
    "hCRHR1 Luciferase Reporter Assay IC50 [nM]": 1.34
  }
]
